Biological target: HMG-CoA synthase (Rattus norvegicus)
Construct: The livers from male Charles River CD rats (225-350 g) were homogenized in 0.25 M sucrose; from tissue; host or cells: rat liver (male Charles River CD rats), 100,000×g supernatant, ammonium sulfate precipitate, DEAE-52 fraction
Sequence (P17425 whole entry): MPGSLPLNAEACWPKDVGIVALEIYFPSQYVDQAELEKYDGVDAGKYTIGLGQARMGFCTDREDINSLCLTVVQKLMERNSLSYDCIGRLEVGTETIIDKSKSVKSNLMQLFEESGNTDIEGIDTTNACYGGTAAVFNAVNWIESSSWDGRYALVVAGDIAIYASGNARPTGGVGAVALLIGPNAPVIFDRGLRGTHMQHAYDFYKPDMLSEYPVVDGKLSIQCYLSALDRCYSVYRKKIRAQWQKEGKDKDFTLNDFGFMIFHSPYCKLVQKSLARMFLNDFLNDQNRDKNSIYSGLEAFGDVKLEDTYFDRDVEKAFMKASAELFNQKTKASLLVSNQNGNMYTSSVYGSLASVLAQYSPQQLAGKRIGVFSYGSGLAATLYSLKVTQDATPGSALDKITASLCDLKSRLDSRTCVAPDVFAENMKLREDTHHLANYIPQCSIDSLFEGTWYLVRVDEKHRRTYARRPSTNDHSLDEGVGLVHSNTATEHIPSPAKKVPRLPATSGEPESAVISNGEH
Assay: HMG-CoA synthase inhibition assay (in vitro, enzyme partially purified from rat liver)
Assay type: biochemical
Settings: HMG-CoA synthase activity; 5 min preincubation, 30°; read-out: IC50
measurement-kind: IC50 (µM)
Field format: number, assumed µM, no unit text.

Reported IC50 (HMG-CoA synthase (Rattus norvegicus)) for entry COC(=O)C=C(C)C=C(C)CC(C)CCCCC1OC(=O)C1COS(C)(=O)=O (centres unmarked) [Example 16] is 0.24

Reported IC50 (HMG-CoA synthase (Rattus norvegicus)) for entry COC(=O)C=C(C)C=C(C)CC(C)CCCCC1OC(=O)C1COC=O (centres unmarked) [Example 17] is 0.14

Reported IC50 (HMG-CoA synthase (Rattus norvegicus)) for entry C=CCOCC1C(=O)OC1CCCCC(C)CC(C)=CC(C)=CC(=O)OC (centres unmarked) [Example 13] is 1

Reported IC50 (HMG-CoA synthase (Rattus norvegicus)) for entry CCOCC1C(=O)OC1CCCCC(C)CC(C)=CC(C)=CC(=O)OC (centres unmarked) [Example 12] is 0.7

Reported IC50 (HMG-CoA synthase (Rattus norvegicus)) for entry CC(=CC(=O)OC(C)(C)C)C=C(C)CC(C)CCCCC1OC(=O)C1CO (centres unmarked) [Example 20] is 0.5

Reported IC50 (HMG-CoA synthase (Rattus norvegicus)) for entry COCC1C(=O)OC1CCCCC(C)CC(C)=CC(C)=CC(=O)O (centres unmarked) [Example 14] is 0.11

Reported IC50 (HMG-CoA synthase (Rattus norvegicus)) for entry COCC1C(=O)OC1CCCCC(C)CC(C)=CC(C)=CC(=O)OC (centres unmarked) [Example 11] is 0.27

Reported IC50 (HMG-CoA synthase (Rattus norvegicus)) for entry CC(=CC(=O)Sc1ccccn1)C=C(C)CC(C)CCCCC1OC(=O)C1CO (centres unmarked) is 0.12

Reported IC50 (HMG-CoA synthase (Rattus norvegicus)) for entry COC(=O)C=C(C)C=C(C)CC(C)CCCCC1OC(=O)C1COC(=O)CCC(=O)O (centres unmarked) is 2.4

Reported IC50 (HMG-CoA synthase (Rattus norvegicus)) for entry COc1ccc(C(OCC2C(=O)OC2CCCCC(C)CC(C)=CC(C)=CC(=O)O)(c2ccccc2)c2ccccc2)cc1 (centres unmarked) [Example 15] is 10

Reported IC50 (HMG-CoA synthase (Rattus norvegicus)) for entry CCCCCCNC(=O)C=C(C)C=C(C)CC(C)CCCCC1OC(=O)C1CO (centres unmarked) [Example 7] is 0.2

Reported IC50 (HMG-CoA synthase (Rattus norvegicus)) for entry CC(=CC(=O)Nc1ccc(Br)cc1)C=C(C)CC(C)CCCCC1OC(=O)C1CO (centres unmarked) [Example 9] is 0.1
